Just for reference, patent US20180193475A1 is where these values come from.

Measured pKd, listed per entry.
Biological target: T1, Human cKIT D1-5 (human cKIT ECD, C-terminal 6x His) (human, UniProt P10721 26-524)
T1 construct: also called human cKIT-His
T1 sequence (P10721 other isoform, or with tags, fused parts or gaps limits assumed): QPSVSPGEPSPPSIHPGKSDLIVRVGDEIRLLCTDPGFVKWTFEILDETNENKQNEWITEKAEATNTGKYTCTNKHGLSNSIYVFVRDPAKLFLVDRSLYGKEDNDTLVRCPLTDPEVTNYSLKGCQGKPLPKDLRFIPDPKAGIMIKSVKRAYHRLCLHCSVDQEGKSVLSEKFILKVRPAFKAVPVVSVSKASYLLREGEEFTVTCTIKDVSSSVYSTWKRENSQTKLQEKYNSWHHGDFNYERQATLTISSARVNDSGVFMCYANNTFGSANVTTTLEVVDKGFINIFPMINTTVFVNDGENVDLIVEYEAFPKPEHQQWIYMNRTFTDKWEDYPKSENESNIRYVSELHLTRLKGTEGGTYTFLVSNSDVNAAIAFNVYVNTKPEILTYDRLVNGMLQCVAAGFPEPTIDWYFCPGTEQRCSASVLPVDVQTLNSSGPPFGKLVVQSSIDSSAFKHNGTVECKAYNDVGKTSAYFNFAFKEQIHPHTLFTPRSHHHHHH
Assay: SPR (Biacore 2000): antibody captured by anti-human Fc on CM5, cKIT ECD in solution, 25 C, 1:1 fit
Hey, just a heads up that pKd is the negative log base 10 of the concentration in molar.

Study these solved cases before continuing.
>  <BINDER>
NEG085 (antibody, human IgG1, kappa, V domains shown) VH: EVQLVESGGGLVQPGGSLRLSCAASGFAFSGYYMAWVRQAPGKGLEWVANINYPGSSTYYLDSVKGRFTISRDNAKNSLYLQMNSLRAEDTAVYYCARGDYYGTTYWYFDVWGQGTTVTVSS VL: DIQMTQSPSSLSASVGDRVTITCRASQSISSYLNWYQQKPGKAPKLLIYYTSRLQSGVPSRFSGSGSGTDFTLTISSLQPEDFATYYCQQGRRLWSFGGGTKVEIKR

>  <pKd>
8.08

$$$$
>  <BINDER>
NEG024 (antibody, human IgG1, kappa, V domains shown, Humanized, optimized variant of 9P3; human IgG1 kappa) VH: EVQLVESGGGLVQPGGSLRLSCAASGFTFSDYYMAWVRQAPGKGLEWVANINQIAGSTYYLDSVRGRFTISRDNAKNSLYLQMNSLRAEDTAVYYCARGDYYGTTYWYFDVWGQGTTVTVSS VL: EIVMTQSPATLSLSPGERATLSCRASQDISNYLNWYQQKPGQAPRLLIYYTSRLQSGIPARFSGSGSGTDYTLTISSLEPEDFAVYYCQQGKKLWSFGGGTKVEIKR

>  <pKd>
8.88

$$$$
>  <BINDER>
20376 (antibody, human IgG1, lambda, V domains shown) VH: QVQLVQSGAEVKKPGSSVKVSCKASGGTFSSYAISWVRQAPGQGLEWMGGIIPMSGRTTYAQKFQGRVTITADESTSTAYMELSSLRSEDTAVYYCARDYGPEAPDYGQSTSYFWYYAFDPWGQGTLVTVSS VL: DIELTQPPSVSVSPGQTASITCSGDNIPSYFVHWYQQKPGQAPVLVIYDDNDRPSGIPERFSGSNSGNTATLTISGTQAEDEADYYCSSWDQDTVVFGGGTKLTVLG

>  <pKd>
8.04

$$$$

**Q:** Which pKd value is on record for anti-cKIT antibody 9P3 (antibody, V domains shown, Hybridoma-derived mouse variable domains) VH: EVRLVESEGGLVQPRSSMKLSCTASGFTFSDYYMAWVRQVPEKGLEWVANINYDGSSTYYLDSLKSRFIISRDNAKNILYLQMSSLKSEDTATYYCARGDYYGTTYWYFDVWGTGTTVTVSS VL: DIQMTQTTSSLSASLGDRVTISCRASQDISNYLNWYQQKPDGTVKLLIYYTSRLQSGVPSRFSGSGSGTDYSLTISNLEQEDIATYFCQQGKKLWSFGGGTKLEIKR ?
**A:** 7.70
